Below: a set of entries, each annotated with reported DC50.
# target-or-test-system: PTPN2 (B16F10.4 cells) (Mus musculus)
# Construct: HiBiT; host or cells: B16F10.4
# Sequence (Q06180 1-406): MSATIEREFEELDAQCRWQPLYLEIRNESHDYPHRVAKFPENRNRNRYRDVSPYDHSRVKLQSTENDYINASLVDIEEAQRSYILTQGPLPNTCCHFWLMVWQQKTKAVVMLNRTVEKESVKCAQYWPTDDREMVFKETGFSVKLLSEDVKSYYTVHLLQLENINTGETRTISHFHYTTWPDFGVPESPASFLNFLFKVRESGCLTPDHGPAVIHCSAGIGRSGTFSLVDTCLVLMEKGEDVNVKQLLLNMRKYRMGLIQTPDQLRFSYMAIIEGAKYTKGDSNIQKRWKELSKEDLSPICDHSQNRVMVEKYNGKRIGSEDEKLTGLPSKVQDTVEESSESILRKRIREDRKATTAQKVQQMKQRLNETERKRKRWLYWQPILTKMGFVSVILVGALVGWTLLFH
# assay-overview: HiBiT Degradation B16F10.4 PTPN2
# Assay type: cell-based
# settings: 24.0 hours
measured-endpoint: DC50

[[record]]
compound = "Cn1c(=O)n(C2CCC(=O)NC2=O)c2ccc(C3CN(C(=O)Nc4cccc(CS(=O)(=O)N5CC[C@H](Nc6cccc(-c7sc(C(=O)O)c(OCC(=O)O)c7Cl)c6)CC5(C)C)c4)CCC3F)cc21 (some centres unmarked)"
observed = "0.05 to 0.2 µM"

[[record]]
compound = "CC1(C)C[C@@H](Nc2cccc(-c3sc(C(=O)O)c(OCC(=O)O)c3Cl)c2)CCN1S(=O)(=O)Cc1cccc(NC(=O)N2CCC[C@H](c3ccc4c5c(cccc35)N(C3CCC(=O)NC3=O)C4=O)CC2)c1 (some centres unmarked)"
observed = "0.05 to 0.2 µM"

[[record]]
compound = "CC1(C)C[C@@H](Nc2cccc(-c3sc(C(=O)O)c(OCC(=O)O)c3Cl)c2)CCN1S(=O)(=O)Cc1cccc(NC(=O)CCN2CCC(Oc3cccc4c3CN(C3CCC(=O)NC3=O)C4=O)CC2)c1 (some centres unmarked)"
observed = "≥ 1 µM"

[[record]]
compound = "CC1(C)C[C@H](Nc2cccc(-c3sc(C(=O)O)c(OCC(=O)O)c3Cl)c2)CCN1S(=O)(=O)Cc1ccc(F)c(NC(=O)[C@H]2[C@@H]3CN(C(=O)CNc4cccc5c4CN(C4CCC(=O)NC4=O)C5=O)C[C@@H]32)c1 (some centres unmarked)"
observed = "≥ 1 µM"

[[record]]
compound = "O=C(O)COc1c(C(=O)O)sc(-c2cccc(NC3CCN(S(=O)(=O)Cc4cccc(NC(=O)CCCCNC(=O)CNc5cccc6c5CN(C5CCC(=O)NC5=O)C6=O)c4)CC3)c2)c1Cl (centres unmarked)"
observed = "≥ 1 µM"


Entry source: patent US20250302815A1
